# Protocol: NCI Yeast Anticancer Drug Screen. Data for the rad50 strain (AID 155);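 further: 0% = growth of vehicle-only cultures of the same strain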
# Condition parameters: S. cerevisiae rad50 strain growth inhibition; at 50.0 µM; stronger effect = higher value
# Protocol: Growth inhibition of yeast strains with defined genetic alterations is measured as a screen for potential anti-cancer activity. Selected strains with alterations in DNA damage repair or cell cycle control were exposed to compounds and growth inhibition was measured relative to vehicle treated controls. The strain used in this assay is rad50
The panel holds about 79,000 compounds, 15% with a hit somewhere; the sample as a whole holds those more often.
Readout type: growth inhibition (%)
Expressed in %, but write only the number.

Study these solved cases before continuing.
| Compound | growth inhibition / % |
| --- | --- |
| S=C(Nc1ccccc1)Nc1ccc(NC(=S)Nc2ccccc2)cc1 | 8.25 |
| O=Cc1ccc(N2OC(c3ccc([N+](=O)[O-])cc3)C(c3ccc([N+](=O)[O-])cc3)C2c2ccc([N+](=O)[O-])cc2)cc1 (stereo not given) | 13.2 |
| CCN(CCO)CCCC(C)Nc1ccnc2cc(Cl)ccc12 (stereo not given) | -43.2 |
| O=C(Nc1ccc(F)c([N+](=O)[O-])c1)Nc1ccccc1C(F)(F)F | 3.95 |

Q: Need growth inhibition, item "COc1ccc(/C=C2/C(=O)N(C(=O)c3ccc(Cl)cc3)N=C2C)cc1OC"
Result: -18.7

###

Measured growth inhibition of individual entries
# Protocol: NCI Yeast Anticancer Drug Screen. Data for the bub3 strain (AID 167)
# Condition parameters: S. cerevisiae bub3 mutant strain, at 50.0 µM, stronger effect = higher value
This is part of a sample that, as a whole, favours compounds with a hit. Of some 79,000 tested, about 15% had one in any assay. Where a SMILES comes first, the peptide text is derived from it. [ ]: non-standard residue; d: D form. The star is where a group is joined. Ac5c = NC1(C(=O)O)CCCC1; Cbz = O=C(OCc1ccccc1)*; Boc = CC(C)(C)OC(=O)*; tBu = CC(C)(C)*
Expressed in %, but write only the number.

Study these solved cases before continuing.
| Compound | Numeric value |
| --- | --- |
| COc1ccc2nc(-c3ccccc3)cc(N=[N+]=[N-])c2c1 | -23.1 |
| COC(=O)C1(NC(=O)C(Cc2ccccc2)NC(=O)C(NC(=O)C(CCCCNC(=O)OC(C)(C)C)NC(=O)C(Cc2c[nH]c3ccccc23)NC(=O)C(Cc2ccccc2)NC(=O)OCc2ccccc2)C(C)OC(C)(C)C)CCCC1 (centres undefined) (Cbz-FWK(Boc)T(tBu)F[Ac5c]-OMe; configuration not given here) | -11.4 |
| O=CC(Cc1ccccc1)C(=O)CCc1ccccc1.[Cu+2] (centres undefined) | 0.4 |
| CCOC(=O)/C(=C/c1ccc(C#N)cc1)N(CC)CC | -3.9 |

Q: Need growth inhibition, item "C/C(=C\c1ccc(OCCN2CCOCC2)cc1)c1ccc2c(c1)C(C)(C)CCC2(C)C"
Result: -20.6

Q: Please answer likewise for CC1(C)CC2=C(SC3C=CC=CC3N2)C(=O)C1C(=O)C(N)=O (centres undefined)
Result: -23.1

Q: Please answer likewise for "CCOC(=O)C(=O)Cc1cc(=O)n(C)c2ccccc12"
Result: 13.9

Q: Please answer likewise for "CCN(CC)CCC(=O)c1ccc(C)cc1"
Result: 0.5

Q: Please answer likewise for CCCCCCCCCCCC(=O)C1=C(O)C(O)CCC1=O (centres undefined)
Result: -7.4

###

# Protocol: NCI Yeast Anticancer Drug Screen. Data for the sgs1 mgt1 strain (AID 161);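 further: 0% = growth of cultures given vehicle only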
# Condition parameters: S. cerevisiae sgs1 mgt1 strain, at 50.0 µM
This is part of a sample that, as a whole, favours compounds with a hit. Of some 79,000 tested, about 15% had one in any assay. Calls of active or inactive are those of the source. Cut-off read from the data, not from the text of the source: active = growth inhibition above about 70%; inactive = the rest.
# output must be one of active, inactive

| Molecule | Qualitative label |
| --- | --- |
| COC(=O)c1nc(N)nc(C(=O)OC)c1C(=O)c1ccc(Cl)c(Cl)c1 | inactive |
| NC(=O)c1nnsc1N/N=C/c1ccc([N+](=O)[O-])cc1 | inactive |
| CC1(C(=O)N2c3ccccc3C=CC2C#N)CC2C=CC1C2 (centres undefined) | inactive |
| CCOC(=O)CCC(NC(=O)c1ccc(NCc2nc3c([nH]2)c(=O)n(C)c(=O)n3C)cc1)C(=O)OCC (centres undefined) | inactive |
| CC1=C(C(=O)O)CCc2ccccc21 | inactive |
| Nc1nnc(-c2ccccc2)o1 | inactive |
| COC(=O)Nc1nc2c(OC)c(OC)c(OC)cc2[nH]1 | inactive |
| CC1CCC2(OC1)OC1CC3C4CCC5CC(O)CCC5(C)C4CC(=O)OC3(C)C1C2C (centres undefined) | inactive |
| Nc1nc(N)c(-c2ccc(Cl)cc2)c(CNc2cccc([N+](=O)[O-])c2)n1 | active |
| CCOC(=O)C(N=Nc1ccc(S(N)(=O)=O)cc1)C(C)=O (centres undefined) | inactive |

Q: How did this test come out for "CCn1nc(C)c2c1C(=O)NCC(=O)N2" ?
Result: inactive

Q: Please answer likewise for "CN(c1ccccc1)S(=O)(=O)c1cccc([N+](=O)[O-])c1"
Result: inactive

Q: Please answer likewise for "Cc1ncc([N+](=O)[O-])n1CCNC(=O)CCC(=O)NCCCn1ccnc1[N+](=O)[O-]"
Result: inactive

Q: Please answer likewise for "COc1ccc(-c2cc(O)cc(C)c2N)c(OC)c1OC"
Result: inactive

Q: Please answer likewise for "NCCSS(=O)(=O)CCN"
Result: inactive

Q: Please answer likewise for "Cn1c(=O)c(C(c2ccccc2)c2c(O)c3ccccc3n(C)c2=O)c(O)c2ccccc21"
Result: inactive

Q: Please answer likewise for "COC(=O)c1ccccc1CC1Cc2cc3c(cc2C1)CCC3"
Result: inactive

Q: Please answer likewise for "Nc1ccc(Nc2cc(=O)[nH]c(=O)[nH]2)cc1Cl"
Result: inactive

Q: Please answer likewise for COC(=O)C1(OC)C(=O)NC2=C1C(=O)c1ccccc1C2=O (centres undefined)
Result: inactive

Q: Please answer likewise for O=NN(CC1(O)OCC(O)C(O)C1O)C(Cc1c[nH]c2ccccc12)C(=O)O (centres undefined)
Result: inactive

Q: Please answer likewise for "CC(C)c1cc(CN(C)C)c(O)c(C(C)(C)C)c1"
Result: inactive

Q: Please answer likewise for COc1ccc2c(c1)C(=O)N1CCOC1C2C(=O)O (centres undefined)
Result: inactive

Q: Please answer likewise for "CC(C)(C)c1ccc(C(=O)N2CCOC23CCCCC3)cc1"
Result: inactive

Q: Please answer likewise for "N#CC1(c2ccc(Cl)cc2)CCC1"
Result: inactive

Q: Please answer likewise for "CCCCCCCCCCCCCCCCCC(=O)[O][Al][O]C(C)C"
Result: inactive

Q: Please answer likewise for "O=CC(=O)c1ccc(F)cc1"
Result: inactive

Q: Please answer likewise for Cc1c([N+](=O)[O-])cc2c(c1[N+](=O)[O-])C(C)(C)C(C)CC2(C)C (centres undefined)
Result: inactive

Q: Please answer likewise for "C[n+]1cccc(/C=C/C(=O)Nc2ccccc2)c1"
Result: inactive

Q: Please answer likewise for "Cc1cc(/C=C\[N+](=O)[O-])c(C)c2c1oc1ccccc12"
Result: inactive

Q: Please answer likewise for "NNC(=O)CSc1ncnc2nc[nH]c12"
Result: inactive

Q: Please answer likewise for "CCOC(=O)c1c(-c2ccc([N+](=O)[O-])cc2)c(/C=N\O)n(-c2ccccc2)c1C"
Result: inactive

Q: Please answer likewise for "CCCCCCCCCCCCCCCCCCNC(=S)N(C)C"
Result: inactive

###

# Protocol: NCI Yeast Anticancer Drug Screen. Data for the rad50 strain (AID 155);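 further: 0% = growth of vehicle-only cultures of the same strain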
# Condition parameters: S. cerevisiae rad50 strain growth inhibition; at 50.0 µM; stronger effect = higher value
About 79,000 compounds went through this panel and 15% of them were active in at least one assay; those are over-represented in the sample as a whole.
Readout type: growth inhibition (%)
Expressed in %, but write only the number.

Study these solved cases before continuing.
| Compound | Numeric value |
| --- | --- |
| Brc1ccc(Br)c2nc(/C=C/c3ccccc3)ccc12 | 11.8 |
| CC(C)=NN/C=N/S(=O)(=O)c1ccc(C)cc1 | 15.2 |
| O=[N+]([O-])c1cc(Cl)c(Cl)c(Cl)c1Cl | 17.1 |

Q: Need growth inhibition, item "CCCCCCCCCCCCCCCCOc1ccc(OCCCCCCCCCCCCCCC)cc1"
Result: 42.2

###

# Protocol: NCI Yeast Anticancer Drug Screen. Data for the rad50 strain (AID 155);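 further: 0% = growth of vehicle-only cultures of the same strain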
# Condition parameters: S. cerevisiae rad50 strain growth inhibition; at 50.0 µM; stronger effect = higher value
Compounds without any hit were thinned out: in the full panel of roughly 79,000, 15% have a hit.
Readout type: growth inhibition (%)
Expressed in %, but write only the number.

Study these solved cases before continuing.
| Compound | growth inhibition, % |
| --- | --- |
| CC(=O)OC1CCCCCCC1 | -13.2 |
| Cc1cccc(N2CCC(O)C2)c1 (stereo not drawn) | -5.3 |
| CCN1C(=O)N(CC)C2(CC(=O)c3ccccc3O2)C1=O (stereo not drawn) | 15.2 |

Q: Need growth inhibition, item "CC(C)c1nc2c([nH]1)c(=O)n(C)c(=O)n2C"
Result: 30.2

Q: Please answer likewise for "Cc1c2c(=O)oc3ccc(Cl)cc3c2nn1-c1ccccc1"
Result: -13.9

Q: Please answer likewise for COc1cccc2c1C(=O)c1c(O)c3c(c(O)c1C2=O)CC(O)(C(O)CO)CC3OC1CC(N2CCSCC2)C(O)C(C)O1 (stereo not drawn)
Result: 87.7

Q: Please answer likewise for "CC(C)(C)c1cc(-c2c3nc(c(-c4cc(C(C)(C)C)cc(C(C)(C)C)c4)c4ccc([nH]4)c(-c4cc(C(C)(C)C)cc(C(C)(C)C)c4)c4nc(c(-c5cc(C(C)(C)C)cc(C(C)(C)C)c5)c5ccc2[nH]5)C=C4)C=C3)cc(C(C)(C)C)c1"
Result: 19.8

Q: Please answer likewise for "O=Cc1cccc(/C=N/Nc2nnc(N/N=C/c3cccc(C=O)c3)c3ccccc23)c1"
Result: 30.6

Q: Please answer likewise for "CC1=C(C(=O)Nc2ccccc2C)C(c2ccc(N(C)C)cc2)C(C(=O)Nc2ccccc2C)=C(C)N1"
Result: -27

Q: Please answer likewise for N#CC(CC(=O)c1ccccc1)c1ccccc1Cl (stereo not drawn)
Result: 17.2

Q: Please answer likewise for "COc1ccc2oc(=N)c(C(=O)NCc3ccccc3)cc2c1"
Result: -4

Q: Please answer likewise for "Nc1ccccc1N=Cc1c(O)c2ccccc2oc1=O"
Result: -8.55
